Observed Kd, system KIT(DKIN) (Homo sapiens, UniProt P10721).

Give the observed Kd of Cn1nc(-c2ccccc2)c(C(=O)Cc2ccc(NC(=O)Nc3cc(C(C)(C)C)on3)cc2)c1Cl [Compound N11] for KIT(DKIN) (Homo sapiens, UniProt P10721).
> 10000 nM

Give the observed Kd of CC(C)(C)c1cc(NC(=O)Nc2ccc(Oc3ccccc3)cc2)no1 [Compound A24] for KIT(DKIN) (Homo sapiens, UniProt P10721).
100 to 1000 nM

Give the observed Kd of CC(C)(C)c1cc(N2CCCN(c3ccc(OCc4ccccc4)cc3)C2=O)on1 [Compound E2] for KIT(DKIN) (Homo sapiens, UniProt P10721).
1000 to 10000 nM
